System: TRPC4 (mouse), co-expressed with 5HT1a in HEK293
Experiment summary: calcium flux potentiators in TRPC4/5HT1a cells, confirmation, counter-screen for TRPC4 potentiator project, cell-based, second counter screen, HEK293 TRPC4/5HT1a, Fluo-4 (AID 434979)
Test parameters: Fluo-4 calcium flux, at 10 µM, serotonin added at its EC20 dose
Calls of active or inactive are those of the source.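 Rule for the calls: active = signal rise over 3 SD above mean of control wells given weak agonist, in both repeats and first screen; inactive = the rest.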
Outcome codes: YES (active), NO (inactive)

CNC[C@H](CC1CCCCC1)NC[C@H](Cc1ccccc1)NCCC12CC3CC(CC(C3)C1)C2 | NO
Cc1ccc(C)c(OCCCCn2ccnc2)c1 | NO
CCOC(=O)C1(CC2CC2)CCN(Cc2ccc(O)c(Cl)c2)CC1 | NO
COc1ccc(C(CNC(=O)c2cccc3cccnc23)N(C)C)cc1 (stereo not drawn) | NO
COc1ccc(C(CNCC(=O)Nc2ccccc2F)N(C)C)cc1 (stereo not drawn) | NO
Cc1ccc(C(=O)NNC(=S)NC(=O)c2ccc(Cl)cc2)cc1 | NO
CCC1(c2ccc(F)cc2)NC(=O)N(CC(=O)c2cc(C)n(C3CC3)c2C)C1=O (stereo not drawn) | YES
CC(=O)Nc1ccc(C2(c3ccc(NC(C)=O)cc3)C(=O)Nc3ccccc32)cc1 | NO
Cc1ccc(C2(O)CN(c3ccccc3)C3=[N+]2CCS3)cc1 (stereo not drawn) | NO
CCCCC(=O)NNC(=S)NC(=O)c1ccc(C)cc1 | NO
COc1cc(C(=O)NC(=S)NNC(=O)[C@H]2C[C@@H]2c2ccccc2)cc(OC)c1OC | NO
CCN(CCCNS(=O)(=O)c1cc(-c2cc(C)no2)ccc1C)Cc1ccccc1 | NO
CCn1cc(CN2CCC(n3nccc3NC(=O)CCOc3ccccc3)CC2)cn1 | NO

###

System under test: Potassium voltage-gated channel subfamily KQT member 1 (Homo sapiens)
Experiment summary: KCNQ1 potassium channel potentiators, confirmation, FluxOR thallium flux, CHO cells, duplicates (AID 493007);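 for potentiation: 0% = buffer-only wells and 100% = R-L3 activator control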
Test parameters: KCNQ1 cell line, FluxOR thallium flux fluorescence, at 10 µM; stronger effect = higher value, % of reference activator effect, buffer zero
The source made the active and inactive calls.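 How the source made its calls: active means potentiation averaged over duplicate wells exceeding buffer-only control mean by more than 3 SD; inactive means the rest.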
Value kind: potentiation

Cc1cccc(NC(=S)NNC(=O)c2csc3c2CCC(C)C3)c1 (stereo not drawn) | 86% (active)
Cc1ccccc1C(OCCN(C)C)C1CCCCC1 (stereo not drawn) | inactive
O=C(O)c1ccc2c(=O)n3cc(C(=O)c4ccccc4O)cc(Cl)c3nc2c1 | inactive
O=C(NN=C1CCCC1)c1n[nH]c2c1CCC2 | 35% (active)
Cc1ccc(/C(O)=C/C(=O)C(=O)NNC(=O)C(O)(c2ccccc2)c2ccccc2)cc1 | inactive
Fc1ccc(-n2nnc(-c3ccccc3)n2)cc1 | inactive
CC(=O)C[C@H]1c2cc(C(F)(F)F)ccc2S(=O)(=O)N1C1CCCCC1 | 74% (active)
Cc1cc(C(=O)NN)n[nH]1 | inactive
C=CCn1c(SCC(N)=O)nc2scc(-c3ccc(C)o3)c2c1=O | 79.5% (active)
CCc1ccc(S(=O)(=O)NC(=S)NC2CCCCC2)cc1 | 108% (active)
Cc1sc2nc(CN3CCOCC3)[nH]c(=S)c2c1C | 69.5% (active)
O=C(NC1CCCC1)C(=O)N(Cc1cccnc1)C(C(=O)NC1CCCC1)c1ccco1 (stereo not drawn) | 35% (active)
S=c1[nH]nc(-c2ccccc2)n1/N=C/c1ccc(-c2ccccc2Cl)o1 | inactive
COc1ccc([N+](=O)[O-])cc1NC(=O)c1cccnc1 | inactive
CCCn1cc(NC(=O)c2cc(-c3ccccc3)on2)cn1 | 25% (active)
Oc1c(CN2CCN(c3ccccn3)CC2)cc(Cl)c2cccnc12 | 35% (active)
Cc1ccc(C)c(NS(=O)(=O)c2cc(C(=O)NCc3ccccn3)ccc2Cl)c1 | inactive
NC(=Nc1ccc(Cl)cc1)c1ccccc1 | inactive
